test-target: Chaperone protein DnaK (Escherichia coli (strain K12))
assay-protocol: blockers of bacterial DnaK function – luminescence, E. coli K12, primary screen (AID 547);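 also: tested at 10 µM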
condition-notes: DnaK chaperone assay, luminescence read-out
The campaign covered roughly 1,300 compounds. About 10 (0.8%) were called active. No rule for the calls is given here. The full list was thinned out, with actives kept by preference.
API: response.call in 1 (active), 0 (inactive)

# count of solved cases: 10
| compound | category-label |
| --- | --- |
| O=c1onc2cnc3ccccc3n12 | 0 |
| O=C(O)c1cc(=O)c2ccc(Cl)cc2[nH]1 | 0 |
| CCCCCCCCCCCCCCCCOCC(COCC(F)(F)F)OP(=O)(O)OCO (stereo not drawn) | 0 |
| CCCCS(=N)(=O)CCC(N)C(=O)O (stereo not drawn) | 0 |
| NC(=O)CC[C@H](N)C(=O)O | 0 |
| CC1(C)CCC=[N+]1[O-] | 0 |
| Cc1nc2n(c(=O)c1CCN1CCC(c3noc4cc(F)ccc34)CC1)CCCC2 | 0 |
| CN(C)C/C=C(/c1ccc(Br)cc1)c1cccnc1 | 0 |
| NCCc1cnc[nH]1 | 0 |
| N#C/C(=C\c1c[nH]c2ccccc12)C(=O)c1ccc(O)c(O)c1 | 0 |

Test call, this compound: CCOC(=O)C1=C[C@]2(CC)CCCN3CCc4c(n1c1ccccc41)[C@@H]32 0

Thanks! And CC(N)C1CCC(C(=O)Nc2ccncc2)CC1 (stereo not drawn) ? 0

Input CCC1(O)CC2CN(CCc3c([nH]c4ccccc34)[C@@](C(=O)OC)(c3cc4c(cc3OC)N(C)C3[C@]45CCN4CC=C[C@@](CC)([C@@H](OC(C)=O)[C@]3(O)C(=O)OC)[C@H]45)C2)C1 (stereo partly drawn) 0

Try the compound CN(C)c1nc(N)c(C(=O)N=C(N)N)nc1Cl 0

Now this one: O=C(O)c1cc([N+](=O)[O-])ccc1NCCCc1ccccc1 0
